# ASSAY SYSTEM: MelBSt (WT) (Salmonella enterica, UniProt P30878, L5M/R363C)
# MEASUREMENT CONDITIONS: read-out: Melibiose displacement of D ^ 2 G (IC 50); 10 μM D2G, 20 mM NaCl, 100 mM KPi pH 7.5
MEASURED METRIC: pIC50
Lab note — pIC50 values are minus log10 of concentrations in M.

Enquiry: Param request: pIC50 | system MelBSt (WT) (Salmonella enterica, UniProt P30878, L5M/R363C) | item OC[C@H]1O[C@H](OC[C@H]2OC(O)[C@H](O)[C@@H](O)[C@@H]2O)[C@H](O)[C@@H](O)[C@H]1O (stereo partly shown) [melibiose]
Return: 2.55

Cited source for all entries: paper PMC4026327
